Test system: UACC-257 melanoma
Assay Details: NCI tumour cell line growth inhibition, 48 h
Assay Endpoint: TGI

[
  {
    "Molecule": "CC(=O)Oc1cc(Cl)c(C)c2c1[C@H]1CC[C@]3(C)[C@@H](OC(C)=O)CC[C@H]3[C@@H]1CC2",
    "TGI": "> 100 µM"
  },
  {
    "Molecule": "O=c1oc2ccccc2cc1-c1csc(Nc2ccc(F)cc2)n1",
    "TGI": "> 52 µM"
  }
]

Q: Please report the measured TGI for CC1CN1C(=O)NCCCCCCNC(=O)N1CC1C (stereo not drawn)
Ans: > 100 µM

----------
Tested on: U251 CNS
Assay Details: NCI tumour cell line growth inhibition, 48 h
Catalogue of TGI readings, one per entry.

As a guide, the following entries are already answered.
[
  {
    "Compound": "CNC(=O)C1CCc2nnc(-c3ccccc3)n21 (configuration not stated)",
    "Assay Endpoint": "TGI",
    "Reported Value": "> 100 µM"
  },
  {
    "Compound": "CCN(CC)C(c1ccc(N(C)C)cc1)C(c1ccc(N(C)C)cc1)N(CC)CC (configuration not stated)",
    "Assay Endpoint": "TGI",
    "Reported Value": "> 73 µM"
  },
  {
    "Compound": "O=C1NC(=O)C(CCC(=O)c2ccc3ccccc3c2)C(=O)N1",
    "Assay Endpoint": "TGI",
    "Reported Value": "> 100 µM"
  },
  {
    "Compound": "CCOC(=O)N(NC(=O)NC(C)C)c1ccccc1",
    "Assay Endpoint": "TGI",
    "Reported Value": "> 100 µM"
  },
  {
    "Compound": "NC1=NC(c2ccccc2)CC(c2cc(Cl)ccc2O)=N1 (configuration not stated)",
    "Assay Endpoint": "TGI",
    "Reported Value": "29.9 µM"
  }
]

Next item in the queue.
Q: Please report the measured TGI for `CCCCC(=O)c1ccc2ccccc2c1O`
Ans: > 100 µM

----------
Test system: TK-10 renal
Assay Details: NCI tumour cell line growth inhibition, 48 h
Assay Endpoint: TGI

Q: Please report the measured TGI for `O=C(O)c1nn(-c2ccccc2-c2n[nH]c(=O)[nH]c2=O)c(=O)[nH]c1=O`
Ans: > 100 µM

Q: Please report the measured TGI for COC(=O)/C=C(/C=C1/C(C#N)=C(N)N(c2ccc(Cl)cc2)C1(C)/C(=C/C(=O)OC)C(=O)OC)C(=O)OC (stereo unspecified)
Ans: > 100 µM

----------
Catalogue of TGI readings, one per entry.
System: SF-539 CNS
Assay Details: NCI tumour cell line growth inhibition, 48 h

As a guide, the following entries are already answered.
[
  {
    "Compound": "c1ccc(-c2nc3ccccc3n3c(CN4CCCCC4)nnc23)cc1",
    "Target Or Test System": "SF-539 CNS",
    "TGI": "> 100 µM"
  },
  {
    "Compound": "Cc1cc2c(cc1C(=O)CCC(=O)O)CC1(C2)Cc2cc(C)c(C(=O)CCC(=O)O)cc2C1",
    "Target Or Test System": "SF-539 CNS",
    "TGI": "> 100 µM"
  },
  {
    "Compound": "COc1ccc(/C=C2\\CCC(C)C3C2=NN(c2ccccc2)C3c2ccc(OC)c(OC)c2)cc1OC (stereo not drawn)",
    "Target Or Test System": "SF-539 CNS",
    "TGI": "7.49 µM"
  }
]

Q: Please report the measured TGI for `CCOCC(=O)N[C@H]1CCc2cc(OC)c(OC)c(OC)c2-c2ccc(OC)c(=O)cc21`
Ans: 0.0328 µM

Q: Please report the measured TGI for `O=C(Cn1c2c(c3ccccc31)CCCC2)N1CCCC1`
Ans: > 100 µM

Q: Please report the measured TGI for `CCOC(=O)/C(=C\c1ccccc1)C(=O)O`
Ans: > 100 µM

Q: Please report the measured TGI for CC(C)(C)C(=O)OCOP(=O)(OCOC(=O)C(C)(C)C)OCC1OC(n2ccc(=O)[nH]c2=O)C(N=[N+]=[N-])C1O (stereo not drawn)
Ans: 8.88 µM

Q: Please report the measured TGI for `CCOC(=O)/C(C#N)=C/c1[nH]c(C(=O)OCc2ccccc2)c(C)c1C`
Ans: > 100 µM

----------
System: SNB-75 CNS
Assay Details: NCI tumour cell line growth inhibition, 48 h
Catalogue of TGI readings, one per entry.

As a guide, the following entries are already answered.
[
  {
    "Compound": "COC(=O)CC(c1cn(S(=O)(=O)c2ccc(C)cc2)c2ccccc12)C1C[C@@H](C(=O)OC)N(C(=O)OC(C)(C)C)C1=O (stereo partly specified)",
    "Target Or Test System": "SNB-75 CNS",
    "TGI": "> 100 µM"
  },
  {
    "Compound": "CC1CN1C(=O)NCCCCCCNC(=O)N1CC1C (stereo unspecified)",
    "Target Or Test System": "SNB-75 CNS",
    "TGI": "> 100 µM"
  },
  {
    "Compound": "COc1cc2ncn(-c3cc(OCc4cccs4)c(C(N)=O)s3)c2cc1OC",
    "Target Or Test System": "SNB-75 CNS",
    "TGI": "> 22.4 µM"
  },
  {
    "Compound": "CC1OC(OC2C(OC(=O)[C@]34CCC(C)(C)CC3C3=CCC5[C@@]6(C)C[C@H](O)[C@H](OC7OC(CO)C(O)C(O)C7N)[C@@](C)(C(=O)O)C6CC[C@@]5(C)C3(C)CC4)OCC(O)C2O)C(O)C(O)C1OC1OCC(O)C(O)C1O (stereo partly specified)",
    "Target Or Test System": "SNB-75 CNS",
    "TGI": "> 100 µM"
  },
  {
    "Compound": "CCN(CC)C(c1ccc(N(C)C)cc1)C(c1ccc(N(C)C)cc1)N(CC)CC (stereo unspecified)",
    "Target Or Test System": "SNB-75 CNS",
    "TGI": "> 73 µM"
  }
]

Q: Quote SNB-75 CNS TGI for entry `CS(=O)(=O)CCNCc1ccc(-c2ccc3ncnc(Nc4ccc(OCc5ccccc5)cc4)c3c2)o1` .
Ans: > 25 µM

----------
Test system: NCI-H226 lung
Assay Details: NCI tumour cell line growth inhibition, 48 h
Catalogue of TGI readings, one per entry.

As a guide, the following entries are already answered.
[
  {
    "Compound": "CC(=O)N(C(C)=O)n1c(Cc2ccc(Cl)cc2)n[nH]c1=O",
    "Reported Value": "> 100 µM"
  },
  {
    "Compound": "Nc1cccnc1NCC1(CO)CCCC1",
    "Reported Value": "> 100 µM"
  },
  {
    "Compound": "CCOC(=O)N(NC(=O)NC(C)C)c1ccccc1",
    "Reported Value": "> 100 µM"
  }
]

Q: Please report the measured TGI for CC(=O)O[C@H]1C(=O)[C@@]2(C)C(C(OC(=O)c3ccccc3)[C@]3(O)CC(OC(=O)[C@H](OC(=O)CCC(=O)O)C(NC(=O)c4ccccc4)c4ccccc4)C(C)=C1C3(C)C)C1(OC(C)=O)COC1C[C@@H]2O (stereo not given in full)
Ans: > 100 µM

Q: Please report the measured TGI for `CC(=O)Oc1cc(Cl)c(C)c2c1[C@H]1CC[C@]3(C)[C@@H](OC(C)=O)CC[C@H]3[C@@H]1CC2`
Ans: > 100 µM

Q: Please report the measured TGI for `O=c1cc(-c2ccccc2)oc2cc(OC/C(=N/O)c3ccccc3)ccc12`
Ans: > 50 µM

Q: Please report the measured TGI for COC(=O)c1cc2c(cc1CC1Cc3cc4c(cc3C1=O)CCC4)CCC2 (stereo not given)
Ans: > 100 µM

Q: Please report the measured TGI for `N#Cc1c(=O)n(-c2ccccc2)c(O)c2c(N)n[nH]c12`
Ans: > 100 µM

Q: Please report the measured TGI for `CC(C)NC(NC(C)C)=C(S(=O)(=O)C(F)(F)C(F)(F)C(F)(F)C(F)(F)F)S(=O)(=O)C(F)(F)C(F)(F)C(F)(F)C(F)(F)F`
Ans: > 100 µM

Q: Please report the measured TGI for CCN(CC)C(c1ccc(N(C)C)cc1)C(c1ccc(N(C)C)cc1)N(CC)CC (stereo not given)
Ans: > 73 µM

----------
Tested on: SW-620 colon
Assay Details: NCI tumour cell line growth inhibition, 48 h
Catalogue of TGI readings, one per entry.

[
  {
    "Compound": "Cc1c(C(=O)C/C(=N/NC(=O)C[N+](C)(C)C)C(=O)Nc2ccc(Cl)cc2)[n+](=O)c2ccccc2n1O",
    "Target Or Test System": "SW-620 colon",
    "TGI": "> 100 µM"
  }
]

Q: Quote SW-620 colon TGI for entry CC(SC(=S)N1CCOCC1)c1cc2oc(=O)n(C)c2cc1Cl (stereo unspecified) .
Ans: > 10 µM

Q: Quote SW-620 colon TGI for entry `O=[N+]([O-])c1ccc(C=NC2CCCCC2)cc1` .
Ans: > 100 µM

Q: Quote SW-620 colon TGI for entry `COc1cc2ncnc(Nc3cccc(Cl)c3)c2cc1OC` .
Ans: 45 µM

Q: Quote SW-620 colon TGI for entry CC1CN1C(=O)NCCCCCCNC(=O)N1CC1C (stereo unspecified) .
Ans: > 100 µM

Q: Quote SW-620 colon TGI for entry `O=C1CSSCC(=O)Nc2ccccc2N1` .
Ans: > 100 µM

Q: Quote SW-620 colon TGI for entry `O=C(Nc1ccncc1)C(=O)c1cn(S(=O)(=O)c2cccc(F)c2)c2ccccc12` .
Ans: > 100 µM

Q: Quote SW-620 colon TGI for entry `Cn1c2ccccc2c2ccc3c(c21)C(=O)c1ccccc1C3=O` .
Ans: > 100 µM

Q: Quote SW-620 colon TGI for entry `C/C(CC(=O)Nc1cc(C)ccc1C)=N\NC(=O)c1ccncc1` .
Ans: > 100 µM

Q: Quote SW-620 colon TGI for entry `CC[C@@]1(c2ccccc2)C2=C(CC(C)(C)CC2=O)Nc2[nH]ncc21` .
Ans: > 100 µM

Q: Quote SW-620 colon TGI for entry `c1ccc(-c2nc3ccccc3n3c(CN4CCCCC4)nnc23)cc1` .
Ans: > 100 µM

Q: Quote SW-620 colon TGI for entry `O=c1cc(-c2ccccc2)oc2cc(OC/C(=N/O)c3ccccc3)ccc12` .
Ans: > 50 µM

Q: Quote SW-620 colon TGI for entry CC(=N)OC1CC2CCC1(C)C2(C)C (stereo unspecified) .
Ans: > 100 µM

Q: Quote SW-620 colon TGI for entry CNC(=O)C1CCc2nnc(-c3ccccc3)n21 (stereo unspecified) .
Ans: > 100 µM

Q: Quote SW-620 colon TGI for entry `N#CC(C#N)=C1Nc2ccccc2S1` .
Ans: > 100 µM

Q: Quote SW-620 colon TGI for entry `O=C1c2cccc([N+](=O)[O-])c2C(=O)N1c1ncn[nH]1` .
Ans: > 100 µM

Q: Quote SW-620 colon TGI for entry CCCCCCCCCCCCN(CC(O)C(O)C(OC1OC(CO)C(O)C(O)C1O)C(O)CO)C(=O)CCCCCCCCCCC (stereo unspecified) .
Ans: 33.6 µM

Q: Quote SW-620 colon TGI for entry COC1(C)CP(=O)(OC(C)C)CC(C)=C1Cl (stereo unspecified) .
Ans: 32.4 µM

Q: Quote SW-620 colon TGI for entry `COc1cc2ncn(-c3cc(OCc4cccs4)c(C(N)=O)s3)c2cc1OC` .
Ans: > 20.3 µM
